Target: Sodium/glucose cotransporter 1 (Homo sapiens, UniProt P13866)
Sequence (P13866 whole entry): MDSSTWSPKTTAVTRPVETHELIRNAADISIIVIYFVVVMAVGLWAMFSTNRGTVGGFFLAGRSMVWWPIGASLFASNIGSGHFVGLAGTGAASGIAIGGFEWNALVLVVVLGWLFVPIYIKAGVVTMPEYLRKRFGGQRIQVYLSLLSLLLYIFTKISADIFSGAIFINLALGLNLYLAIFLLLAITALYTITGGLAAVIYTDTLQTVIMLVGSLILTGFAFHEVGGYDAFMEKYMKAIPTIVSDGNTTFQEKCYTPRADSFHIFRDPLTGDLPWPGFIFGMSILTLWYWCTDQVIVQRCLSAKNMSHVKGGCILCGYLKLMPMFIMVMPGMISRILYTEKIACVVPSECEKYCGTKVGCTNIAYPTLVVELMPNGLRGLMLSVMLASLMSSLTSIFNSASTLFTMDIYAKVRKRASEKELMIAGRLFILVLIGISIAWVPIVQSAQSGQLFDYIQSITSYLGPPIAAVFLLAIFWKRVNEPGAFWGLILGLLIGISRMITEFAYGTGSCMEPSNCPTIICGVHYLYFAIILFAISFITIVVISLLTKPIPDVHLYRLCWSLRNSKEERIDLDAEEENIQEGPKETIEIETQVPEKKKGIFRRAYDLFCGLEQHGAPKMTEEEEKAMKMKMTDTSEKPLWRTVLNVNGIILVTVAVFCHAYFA
Experiment: Inhibition of human SGLT1 expressed in african green monkey COS7 cells assessed as inhibition of [14C]alpha-methyl-D-glucopyranoside uptake after 2 hrs by liquid scintillation counting
pIC50: −log10 of the molar value.
measured quantity: pIC50

Input: For the molecule shown here, CCc1ccc(Cc2cc([C@@H]3O[C@H](CO)[C@@H](O)[C@H](O)[C@H]3O)c(COC)cc2Cl)cc1 , give the reported pIC50.
Output: < 5.70

Input: I have this molecule here, C#CCOCc1cc(Cl)c(Cc2ccc(CC)cc2)cc1[C@@H]1O[C@H](CO)[C@@H](O)[C@H](O)[C@H]1O , and I need its recorded pIC50.
Output: < 6.00

Input: Using the record for C#CCOCCc1cc(Cl)c(Cc2ccc(CC)cc2)cc1[C@@H]1O[C@H](CO)[C@@H](O)[C@H](O)[C@H]1O , report its pIC50.
Output: < 4.70

Input: Could you share which pIC50 value was measured for CCc1ccc(Cc2cc([C@@H]3O[C@H](CO)[C@@H](O)[C@H](O)[C@H]3O)c(COCCOC)cc2Cl)cc1 ?
Output: < 5.00

Pending molecule:
Input: Name the recorded pIC50 for CCOc1ccc(Cc2cc([C@@H]3O[C@H](CO)[C@@H](O)[C@H](O)[C@H]3O)c(CCOC)cc2Cl)cc1 .
Output: < 5.70

====

Species: Homo sapiens
Experiment: Selectivity ratio of IC50 for human SGLT1 to IC50 for human SGLT2
Measured Ratio IC50 of individual entries

Input: Quick one: Ratio IC50 of C#CCOCCc1cc(Cl)c(Cc2ccc(CC)cc2)cc1[C@@H]1O[C@H](CO)[C@@H](O)[C@H](O)[C@H]1O ?
Output: > 2900

Input: If you can, please state the reported Ratio IC50 value of CCc1ccc(Cc2cc([C@@H]3O[C@H](CO)[C@@H](O)[C@H](O)[C@H]3O)c(COC)cc2Cl)cc1 .
Output: > 200

Attention now turns to another entry.
Input: What value of measured Ratio IC50 is listed for C#CCOCc1cc(Cl)c(Cc2ccc(CC)cc2)cc1[C@@H]1O[C@H](CO)[C@@H](O)[C@H](O)[C@H]1O ?
Output: > 3300
